// provenance: the supplement of paper PMC12636428

# Tested on: Saccharomyces cerevisiae
# assay: transcriptional activation domain activity (GFP:mCherry ratio, weighted mean of sorted bins, harmonized to initial dataset scale) (arbitrary fluorescence ratio units); higher = stronger transcriptional activation
# study_conditions: beta-estradiol 1 µM; induction time 4 h
Note to self: values exactly at 40000 are T. So transcriptional activation domain activity at or above 40000 is T, below is F.

The following sequences have reported results that may help.
MLTHLHFVEQPLTPPFFSVSITSFLLRSFAFPPCVLPSVAFFLCLFCFLPLLV :: T
MLAYRSQQGWSEGDFLACRWFFSFFFPLFLPLSPPSFLCPFSFLFLFFLLLHL :: T

Does the reported transcriptional activation domain activity for `SDESTKADSGNKDNPGGAEKSGDEKEKEKDGGTSRMRSRKGKFRKNKAEDIEK` fall at or above the 40000 mark?
F

Does the reported transcriptional activation domain activity for `MQVSNLLLLVLNLCCVVFLLINLDLHSCFFKLILFIFTSCLFNHPLPFQFIFT` fall at or above the 40000 mark?
T

Does the reported transcriptional activation domain activity for `FLSCLLAMEIIQHYMYVVAIKDRKAWIGDSPFELSMIGLWNLVIVWLKLLLPW` fall at or above the 40000 mark?
T

Does the reported transcriptional activation domain activity for `MFSHFNSSDLTSTFFFFMPVLGFILCPFFLLESMVCALVGWPCFLLSYCLPCL` fall at or above the 40000 mark?
T

Does the reported transcriptional activation domain activity for `MSSSEDEPRPRKARSKLSPPASPDSRAQSAPAVPSPVKLVRAKPRARAKAASL` fall at or above the 40000 mark?
T

Does the reported transcriptional activation domain activity for `VATADVCMVTHFLILLLLAAITGAVLVSVFAFLCVICPPHLRRRPVFMLNLLA` fall at or above the 40000 mark?
F

Does the reported transcriptional activation domain activity for `RQESSPRLPSPSHTQQRERNQTPCAARSSSSSPRRPRPQPQPSTSAPSSPASP` fall at or above the 40000 mark?
F
